- Tested on: A2780 cells
- Experiment Description: A2780 cell proliferation screen
- Assay type: cell-based
- Experimental Setup: Homo sapiens, A2780, 72 h, read-out: EC50 A2780
Entries and their measured EC50 follow.
Assay Metric: EC50

{"columns": ["Compound", "Recorded Value"],
 "data": [
  ["CN1CCN(CCOc2cc(OC3CCOCC3)c3c(Nc4c(Cl)ccc5c4OCO5)ncnc3c2)CC1 [AZD0530 (saracatinib), saracatinib]", "> 25 µM"],
  ["C[C@]1(O)C[C@@H](c2nc(-c3ccc4ccc(-c5ccccc5)nc4c3)c3c(N)nccn32)C1", "> 25 µM"],
  ["CCN(CCCOc1ccc2c(Nc3cc(CC(=O)Nc4cccc(F)c4)n[nH]3)ncnc2c1)CCOP(=O)(O)O", "> 25 µM"],
  ["COc1ccc(-c2ccc3c(N4CCOC[C@@H]4C)nc(N4CCOC[C@@H]4C)nc3n2)cc1CO", "0.0783 µM"],
  ["CC(=O)Nc1cccc(-n2c(=O)n(C3CC3)c(=O)c3c(Nc4ccc(I)cc4F)n(C)c(=O)c(C)c32)c1", "> 25 µM"],
  ["COc1cc(Nc2ncc3c(n2)-c2ccc(Cl)cc2C(c2c(F)cccc2OC)=NC3)ccc1C(=O)O", "> 25 µM"],
  ["COc1ncc(-c2ccc3nccc(-c4ccnnc4)c3c2)cc1NS(=O)(=O)c1ccc(F)cc1F", "0.155 µM"],
  ["Cc1cc([C@@H](C)Nc2ccccc2C(=O)O)c2nc(N3CCOCC3)cc(=O)n2c1", "> 25 µM"],
  ["Cn1ncc(Cl)c1-c1cc(C(=O)N[C@H](CN)Cc2ccc(F)c(F)c2)oc1Cl", "2.35 µM"],
  ["Cn1c(=O)n(-c2ccc(C(C)(C)C#N)cc2)c2c3cc(-c4cnc5ccccc5c4)ccc3ncc21", "0.021 µM"],
  ["CCCS(=O)(=O)Nc1ccc(F)c(C(=O)c2c[nH]c3ncc(-c4ccc(Cl)cc4)cc23)c1F", "> 25 µM"],
  ["CN(C)C(=O)c1cc2cnc(Nc3ccc(N4CCNCC4)cn3)nc2n1C1CCCC1", "> 25 µM"],
  ["Cn1cnc2c(F)c(Nc3ccc(Br)cc3Cl)c(C(=O)NOCCO)cc21 [AZD6244 (selumetinib), selumetinib]", "> 25 µM"]
]}
